System: HBV
Test: Antiviral activity against HBV in HepG2.2.15 cells, viral DNA by qPCR after 6 days
Conditions: Table 1; HepG2
quantity: HBV TI (CC50/EC50)

Entry CCCCCCCCCCCCCCSSCCOP(=O)(O)CO[C@H](C)Cn1cnc2c(N)ncnc21.N [Compound 11c] has what HBV TI (CC50/EC50)?
>56

For the molecule CCCCCCCCCCSSCCOP(=O)(O)CO[C@H](C)Cn1cnc2c(N)ncnc21.N [Compound 11a] , what HBV TI (CC50/EC50) is on record?
>1

Query: HBV TI (CC50/EC50); subject: CCCCCCCCCCCCCCCCSSCCOP(=O)(O)COC(C)Cn1cnc2c(N)ncnc21 (stereo not drawn) [Compound 11d]
>1250

Look up HBV TI (CC50/EC50) for this molecule: CCCCCCCCCCCCCCCCCCSSCCOP(=O)(O)CO[C@H](C)Cn1cnc2c(N)ncnc21.N [Compound 11e]
>50

I would be grateful if you could share the reported HBV TI (CC50/EC50) for C[C@H](Cn1cnc2c(N)ncnc21)OCP(=O)(O)OCCSSCCO [DTE-TFV, reference compound] .
>8.6

I am curious: what HBV TI (CC50/EC50) value has been reported for CCCCCCCCCCCCSSCCOP(=O)(O)CO[C@H](C)Cn1cnc2c(N)ncnc21.N [Compound 11b] ?
>30

Attribution: patent US11801255B2
